Origin of measurements: patent US20240150797A1

- ASSAY COMMENT: Specific activity of purified CHI, absorbance decrease at 384 nm, hesperetin chalcone; further: unit not given here
- Assay type: biochemical
- CONDITION SET: purified CHI in 50 mM PBS, 100 μM substrate, 25° C.
EXPERIMENTAL ENDPOINT: Specific activity, Hesperetin chalcone

Exam item: For CHI8: Chalcone isomerase from Roseburia sp., access no. SCJ10619.1 (protein, listed as Roseburia sp.) RSLIYVDVAKEQYRVKLNHWLYAVHVPESISKFRPYVSQYAFYNALPVPPLGEQFGTVRMQLTEHYWQVNPMDVSMAVNVFTETFPTEVLIWQGNMPENAIALNYEGDEARSAKVENCNPFVFAFLPISWEEDLKGAGRTMADGPNYRWNFALHYPDGVSVETGDQWFYEKFVPAFLEIPEATRMVTSKIIKEINDCPMDRVVEIWFEGPDQWSAAMEKAKSIEPPEWAQEETFPYLKPYQNIMGVFVADNISSDNLNNHRGYITMR , what is its reported Specific activity, Hesperetin chalcone?
Marked response: 19.2
